experiment: Half life in human liver microsomes at 0.5 uM preincubated for 10 mins before NADPH and UDPGA challenge; format: ADME, Microsome
Recorded half-life at 0.5 µM for the following compounds

Sample records with half-life at 0.5 µM:
COc1cc(C2CCN(CC(N)=O)CC2)ccc1Nc1ncc2c(Cl)cc(-c3ccccc3N(C)S(C)(=O)=O)n2n1; 37 min
COc1cc(C2CCN(C[C@@H](C)O)CC2)ccc1Nc1ncc2ccc(-c3ccccc3N(C)S(C)(=O)=O)n2n1; < 5 min
CNC(=O)CN1CCC(c2ccc(Nc3ncc4ccc(-c5ccccc5OC)n4n3)c(OC)c2)CC1; < 12 min

Task: Name the reported half-life at 0.5 µM value associated with the compound `COc1cc(C2CCN(CC(N)=O)CC2)ccc1Nc1ncc2c(O)cc(-c3ccccc3N(C)S(C)(=O)=O)n2n1`
Result: < 5 min

Task: Next compound up: `COc1cc(C2CCN(CC(N)=O)CC2)ccc1Nc1ncc2ccc(-c3ccccc3N(C)S(C)(=O)=O)n2n1`
Result: < 5 min

###

target: NPM/ALK (Nucleophosmin/ALK tyrosine kinase receptor) (Homo sapiens, UniProt Q9UM73)
Sequence (P06748 whole entry, one chain of several, further chain): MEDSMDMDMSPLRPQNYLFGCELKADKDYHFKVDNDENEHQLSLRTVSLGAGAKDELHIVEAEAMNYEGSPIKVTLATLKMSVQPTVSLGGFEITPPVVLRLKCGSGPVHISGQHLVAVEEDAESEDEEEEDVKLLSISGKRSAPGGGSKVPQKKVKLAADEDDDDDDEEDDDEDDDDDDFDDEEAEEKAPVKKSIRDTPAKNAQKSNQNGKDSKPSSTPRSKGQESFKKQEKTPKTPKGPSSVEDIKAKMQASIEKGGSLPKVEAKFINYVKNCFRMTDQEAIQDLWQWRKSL
observable: IC50 (nM)

Sample records with IC50:
COc1cc(C2CCN(C)CC2)ccc1Nc1ncc2ccc(-c3ccccc3OC)n2n1; 70
COc1cc(C2CCN(CC(N)=O)CC2)ccc1Nc1ncc2c(C)cc(-c3ccccc3N(C)S(C)(=O)=O)n2n1; 70
COc1cc(C2CCN(C[C@@H](C)O)CC2)ccc1Nc1ncc2ccc(-c3ccccc3N(C)S(C)(=O)=O)n2n1; 70

A = COc1cc(C2CCN(CCO)CC2)ccc1Nc1ncc2ccc(-c3ccccc3N(C)S(C)(=O)=O)n2n1
B = COc1cc(C2CCN(C[C@H](O)CO)CC2)ccc1Nc1ncc2ccc(-c3ccccc3OC)n2n1
C = COc1cc(C2CCN(CC(N)=O)CC2)ccc1Nc1ncc2ccc(-c3ccccc3C#N)n2n1
Task: Ordering criterion: IC50; begin with the maximum. Return value: ordered labels per request.
Result: C, A, B
(C: 250 nM, A: 60 nM, B: 30 nM)

P = COc1cc(C2CCNCC2)ccc1Nc1ncc2ccc(-c3ccccc3N(C)S(C)(=O)=O)n2n1
Q = COc1cc(C2CCN(C(=O)C3CCN3)CC2)ccc1Nc1ncc2ccc(-c3ccccc3OC)n2n1 (racemic)
Task: From the recorded data, which exceeds the other in IC50: P or Q ? Write down the label attached to your selection.
Result: Q
(Q: 200 nM, P: 40 nM)

###

test: Volume of distribution in SCID mouse at 1 mg/kg, iv; assay type: ADME, organism-based; set-up: dose 1 mg/kg, route intravenous; conditions: in vivo
observable: Vd (L/kg)
Express it in L/kg; write the number only.

Task: Name the reported Vd value associated with the compound `COc1cc(C2CCN(CC(N)=O)CC2)ccc1Nc1ncc2ccc(-c3ccccc3OC)n2n1`
Result: 1.1

###

experiment: Volume of distribution in Sprague-Dawley rat at 1 mg/kg, iv; assay type: ADME, organism-based; set-up: dose 1 mg/kg, route intravenous; details: in vivo
observable: Vd (L/kg)
Express it in L/kg; write the number only.

Task: Name the reported Vd value associated with the compound `COc1cc(C2CCN(CC(N)=O)CC2)ccc1Nc1ncc2ccc(-c3ccccc3OC)n2n1`
Result: 3.5

###

biological target: ALK tyrosine kinase receptor (Homo sapiens); test: Inhibition of GST-tagged human ALK cytoplasmic domain (1058-1620) expressed in Sf21 insect cells using GST-tagged human recombinant PLC-gamma/substrate by ELISA
Sequence (Q9UM73 whole entry, the tested form may be a part): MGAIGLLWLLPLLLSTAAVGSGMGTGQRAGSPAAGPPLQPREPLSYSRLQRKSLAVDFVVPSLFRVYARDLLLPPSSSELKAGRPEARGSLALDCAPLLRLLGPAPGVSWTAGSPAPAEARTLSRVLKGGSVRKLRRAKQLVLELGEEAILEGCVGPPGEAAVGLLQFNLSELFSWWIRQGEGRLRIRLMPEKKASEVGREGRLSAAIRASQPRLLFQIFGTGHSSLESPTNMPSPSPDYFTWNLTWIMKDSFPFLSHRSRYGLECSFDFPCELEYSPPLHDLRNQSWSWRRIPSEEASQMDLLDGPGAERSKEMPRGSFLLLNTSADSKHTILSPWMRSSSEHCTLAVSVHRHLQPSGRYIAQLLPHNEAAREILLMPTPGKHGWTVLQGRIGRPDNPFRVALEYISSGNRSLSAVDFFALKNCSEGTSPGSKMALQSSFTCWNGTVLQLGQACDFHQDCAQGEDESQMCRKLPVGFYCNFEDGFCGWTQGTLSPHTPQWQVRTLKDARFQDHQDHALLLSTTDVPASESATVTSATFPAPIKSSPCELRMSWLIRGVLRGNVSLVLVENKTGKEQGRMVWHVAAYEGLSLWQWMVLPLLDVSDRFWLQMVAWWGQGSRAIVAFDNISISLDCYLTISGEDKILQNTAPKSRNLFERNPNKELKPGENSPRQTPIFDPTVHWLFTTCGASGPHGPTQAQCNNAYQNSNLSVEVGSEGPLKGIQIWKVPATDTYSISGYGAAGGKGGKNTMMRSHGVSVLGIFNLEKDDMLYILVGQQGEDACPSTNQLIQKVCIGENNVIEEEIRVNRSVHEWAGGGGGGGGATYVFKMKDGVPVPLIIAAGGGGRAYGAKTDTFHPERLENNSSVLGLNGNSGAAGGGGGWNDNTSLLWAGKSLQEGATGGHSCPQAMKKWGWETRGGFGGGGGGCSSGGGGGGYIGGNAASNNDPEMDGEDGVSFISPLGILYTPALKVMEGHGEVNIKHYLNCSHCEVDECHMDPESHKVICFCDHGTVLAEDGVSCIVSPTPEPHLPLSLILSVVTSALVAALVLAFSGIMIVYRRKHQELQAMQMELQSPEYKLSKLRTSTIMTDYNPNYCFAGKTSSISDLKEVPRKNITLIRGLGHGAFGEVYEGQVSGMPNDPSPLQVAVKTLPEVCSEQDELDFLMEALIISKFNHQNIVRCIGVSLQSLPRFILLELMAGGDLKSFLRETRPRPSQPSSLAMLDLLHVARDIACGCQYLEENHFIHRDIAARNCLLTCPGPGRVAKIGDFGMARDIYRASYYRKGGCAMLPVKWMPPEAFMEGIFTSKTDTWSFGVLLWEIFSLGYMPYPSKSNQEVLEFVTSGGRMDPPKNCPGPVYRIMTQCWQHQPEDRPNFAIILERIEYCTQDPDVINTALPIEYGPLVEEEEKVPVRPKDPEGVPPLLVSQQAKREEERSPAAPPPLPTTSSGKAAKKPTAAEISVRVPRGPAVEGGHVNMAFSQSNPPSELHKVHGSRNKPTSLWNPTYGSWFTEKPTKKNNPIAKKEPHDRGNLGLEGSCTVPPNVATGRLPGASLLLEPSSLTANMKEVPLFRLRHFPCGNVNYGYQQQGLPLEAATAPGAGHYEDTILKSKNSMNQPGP
observable: IC50 (nM)

1 = COc1cc(C2CCN(C[C@@H](C)O)CC2)ccc1Nc1ncc2ccc(-c3ccccc3OC)n2n1
2 = COc1c(Nc2ncc3ccc(-c4ccccc4N(C)S(C)(=O)=O)n3n2)ccc(N2CCN(C[C@H](C)O)CC2)c1F
3 = COc1cc(C2CCN(CC(N)=O)CC2)ccc1Nc1ncc2ccc(-c3ccccc3C#N)n2n1
4 = COc1cc(C2CCN(C(=O)C3CCN3)CC2)ccc1Nc1ncc2ccc(-c3ccccc3OC)n2n1 (racemic)
Task: Reorder: IC50, max to min. Return value: ordered labels per request.
Result: 2, 3, 4, 1

1 = COc1cc(C2CCN(CC(N)=O)CC2)ccc1Nc1ncc2c(Cl)cc(-c3ccccc3N(C)S(C)(=O)=O)n2n1
2 = C[C@H](O)CN1CCN(c2cc(F)c(Nc3ncc4ccc(-c5ccccc5N(C)S(C)(=O)=O)n4n3)cc2F)CC1
3 = COc1cc(C2CCN(C(=O)C(C)(C)N)CC2)ccc1Nc1ncc2ccc(-c3ccccc3OC)n2n1
4 = COc1cc(C2CCN(CC(N)=O)CC2)ccc1Nc1ncc2ccc(-c3ncccc3OC)n2n1
5 = COc1cc(C2CCN(C[C@H](O)CO)CC2)ccc1Nc1ncc2ccc(-c3ccccc3OC)n2n1
Task: # ascending order, key=IC50 Return value: ordered labels per request.
Result: 5, 1, 3, 2, 4

1 = COc1cc(C2CCN(CCO)CC2)ccc1Nc1ncc2ccc(-c3ccccc3N(C)S(C)(=O)=O)n2n1
2 = COc1cc(C2CCN(CC(N)=O)CC2)ccc1Nc1ncc2ccc(-c3ccncc3OC)n2n1
Task: From the recorded data, which exceeds the other in IC50: 1 or 2 ? Write down the label attached to your selection.
Result: 2
(2: 9 nM, 1: 6 nM)
